Source: patent US12384776B2

As shown below, each of these compounds has a reported pIC50 value.
- experimental.target: Nanoluciferase-BRD9 fusion protein (3×FLAG-NLuc-BRD9) in SYO-1 cells (Homo sapiens (Human), UniProt Q9H8M2)
- Sequence (Q9H8M2 whole entry, the tested form may be a part): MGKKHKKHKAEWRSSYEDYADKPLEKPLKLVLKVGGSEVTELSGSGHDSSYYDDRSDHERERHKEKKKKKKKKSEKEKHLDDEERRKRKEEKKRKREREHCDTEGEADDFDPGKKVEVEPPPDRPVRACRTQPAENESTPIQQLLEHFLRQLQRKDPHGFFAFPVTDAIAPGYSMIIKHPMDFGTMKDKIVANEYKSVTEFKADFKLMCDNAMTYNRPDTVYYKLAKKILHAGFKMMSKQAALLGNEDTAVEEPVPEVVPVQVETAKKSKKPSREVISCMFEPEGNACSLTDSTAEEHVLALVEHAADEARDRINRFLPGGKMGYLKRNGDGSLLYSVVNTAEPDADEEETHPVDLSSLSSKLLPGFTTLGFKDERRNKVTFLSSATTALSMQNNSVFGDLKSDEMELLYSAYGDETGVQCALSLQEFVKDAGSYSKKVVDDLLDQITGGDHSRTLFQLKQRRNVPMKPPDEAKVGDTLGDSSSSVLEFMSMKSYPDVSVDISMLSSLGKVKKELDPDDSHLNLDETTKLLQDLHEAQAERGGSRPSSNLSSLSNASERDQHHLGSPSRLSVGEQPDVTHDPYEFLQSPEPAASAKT
- assay.comment: SYO1 BRD9 NanoLuc degradation assay
- Assay type: cell-based
- conditions.used: SYO-1 cells expressing 3×FLAG-NLuc-BRD9, 6 hours incubation, top dose 1 μM
pIC50: −log10 of the molar value.

In the examples that follow, each entry is paired with its recorded pIC50.
>>> result("CNC(=O)N1CCc2c(-c3cc(OC)c(CN4CC5CN(C(=O)CCOCCOc6ccc7c(c6)C(=O)N(C6CCC(=O)NC6=O)C7=O)CCC54)c(OC)c3)cn(C)c(=O)c2C1 (centres unmarked) [Compound D289]")
"7.00 to 8.00"
>>> result("CNC(=O)N1CCc2c(-c3cc(OC)c(CN4CC(C(=O)N5CC6(CCN(c7ccc8c(c7)C(=O)N(C7CCC(=O)NC7=O)C8=O)C6)C5)C4)c(OC)c3)cn(C)c(=O)c2C1 (centres unmarked) [Compound D144]")
"7.00 to 8.00"
>>> result("COc1cc(-c2cn(C)c(=O)c3c2CCN(C(=O)NC2CC4CC2CN4CCCCN2CCN(c4ccc5c(c4)C(=O)N(C4CCC(=O)NC4=O)C5=O)CC2)C3)cc(OC)c1CN(C)C (centres unmarked) [Compound D243]")
"≤ 6.00"
>>> result("COc1cc(-c2cn(C)c(=O)c3c2CCN(C(=O)NCCOCCOCCNc2cccc4nc(C)n(C5CCC(=O)NC5=O)c(=O)c24)C3)cc(OC)c1CN(C)C (centres unmarked) [Compound D292]")
"6.00 to 7.00"

Now examine the next entry.
Q: Identify measured pIC50 associated with CNC(=O)N1CCc2c(-c3cc(OC)c(CN4CCN(CCN5CCC(c6ccc7c(c6)CN(C6CCC(=O)NC6=O)C7=O)CC5)CC4)c(OC)c3)cn(C)c(=O)c2C1 (centres unmarked) [Compound D72]
Result: > 8.00

----------
- experimental.target: BRD9 bromodomain (Homo sapiens (Human), UniProt Q9H8M2)
- assay.comment: BRD9 bromodomain TR-FRET competition binding assay
pIC50: −log10 of the molar value.
Overview of reported pIC50 across a group of molecules:

Below are worked cases with known answers.
>>> result("COc1cc(-c2cn(C)c(=O)c3c2CN(C(=O)N(C)C)CC3)cc(OC)c1CN(C)C")
"< 7.00"
>>> result("COc1cc(-c2cn(C)c(=O)c3c2CCN(C(=O)NC2CCN(CCOc4ccc5c(c4)C(=O)N(C4CCC(=O)NC4=O)C5=O)CC2)C3)cc(OC)c1CN(C)C (centres unmarked)")
"> 8.00"
>>> result("CNC(=O)N1CCc2c(c(-c3cc(OC)c(CN(C)CC(=O)NCCOCCOc4cccc5c4C(=O)N(C4CCC(=O)NC4=O)C5=O)c(OC)c3)cn(C)c2=O)C1 (centres unmarked)")
"< 7.00"
>>> result("CNC(=O)C1Cc2c(c(-c3cc(OC)c(CN(C)C)c(OC)c3)cn(C)c2=O)CN1 (centres unmarked)")
"< 6.00"
>>> result("COc1cc(-c2cn(C)c(=O)c3c2CCN(C(=O)NCCOCCNc2ccc4c(c2)C(=O)N(C2CCC(=O)NC2=O)C4=O)C3)c(OC)cc1CN(C)C (centres unmarked)")
"< 7.00"
>>> result("COc1cc(-c2cn(C)c(=O)c3c2CCN(C(=O)NCCN(C)CCOCCOc2cccc4c2C(=O)N(C2CCC(=O)NC2=O)C4=O)C3)cc(OC)c1CN(C)C (centres unmarked)")
"< 7.00"
>>> result("CNC(=O)N1CCc2c(-c3cc(OC)c(CN4CCC5(CC4)CN(C(=O)CCCCOc4ccc6c(c4)C(=O)N(C4CCC(=O)NC4=O)C6=O)CCO5)c(OC)c3)cn(C)c(=O)c2C1 (centres unmarked)")
"> 8.00"
>>> result("COc1cc(-c2cn(C)c(=O)c3c2CN(C(=O)N(C)C)CC3)cc(OC)c1CN(C)CCOCCN1CCN(c2ccc3c(c2)C(=O)N(C2CCC(=O)NC2=O)C3=O)CC1 (centres unmarked)")
"< 8.00"

Q: Quickly give me recorded pIC50 for COc1cc(-c2cn(C)c(=O)c3c2CCN(C(=O)NCCCCCCCC(=O)N[C@H](C(=O)N2C[C@H](O)C[C@H]2C(=O)NCc2ccc(-c4scnc4C)cc2)C(C)(C)C)C3)cc(OC)c1CN(C)C
Result: > 8.00

Q: Indicate the recorded pIC50 value for this molecule: COc1cc(-c2cn(C)c(=O)c3c2CNC(C(N)=O)C3)cc(OC)c1CN(C)C (centres unmarked)
Result: < 6.00

Q: Given COc1cc(-c2cn(C)c(=O)c3c2CCN(C(=O)NCCCCCC(=O)N[C@H](C(=O)N2C[C@H](O)C[C@H]2C(=O)NCc2ccc(-c4scnc4C)cc2)C(C)(C)C)C3)cc(OC)c1CN(C)C , respond with its pIC50.
Result: < 8.00

----------
Quick reference: IC50 of the listed items.
- experimental.target: Nanoluciferase-BRD9 fusion protein (3×FLAG-NLuc-BRD9) in SYO-1 cells (Homo sapiens (Human))
- assay.comment: SYO1 BRD9 NanoLuc degradation assay
- Assay type: cell-based
- conditions.used: SYO-1 cells, 6 hours, Table 6C
- Procedure: Procedure: A stable SYO-1 cell line expressing 3×FLAG-NLuc-BRD9 was generated. On day 0 cells were seeded in 30 μL media into each well of 384-well cell culture plates. The seeding density was 8000 cells/well. […] Nanoluciferase activity was measured by adding 15 μL of freshly prepared Nano-Glo Luciferase Assay Reagent (Promega N1130), shaking the plates for 10 minutes and reading the bioluminescence using an EnVision reader. […]

>>> result("CNC(=O)N1CCc2c(-c3cc(OC)c(CN4CCC(C(N5CCC6(CC5)CC(Oc5ccc7c(c5)C(=O)N(C5CCC(=O)NC5=O)C7=O)C6)C(F)(F)F)CC4)c(OC)c3)cn(C)c(=O)c2C1 (centres unmarked) [Compound D343]")
"≥ 1000 nM"
>>> result("COc1cc(-c2cn(C)c(=O)c3c2CCC3)cc(OC)c1CN1CCC(C#Cc2ccc3c(c2)C(=O)N(C2CCC(=O)NC2=O)C3)CC1 (centres unmarked) [Compound D371]")
"< 10 nM"
>>> result("COc1cc(-c2cn(C)c(=O)c3c2CN(C(=O)F)CC3)cc(OC)c1CN1CC(CN2CCC3(CC2)CN(c2ccc4c(c2)C(=O)N(C2CCC(=O)NC2=O)C4)C3)C1 (centres unmarked) [Compound D349]")
"≥ 10 nM"
>>> result("COc1cc(-c2cn(C)c(=O)c3c2COC3)cc(OC)c1CN1CCN(c2ccc3c(c2)C(=O)N(C2CCC(=O)NC2=O)C3=O)CC1 (centres unmarked) [Compound D373]")
"< 10 nM"

Okay, now this compound:
Q: Report measured IC50; entry is CNC(=O)N1CCc2c(-c3cc(OC)c(CN4CCC(CN5CCC6(CC5)CC(Oc5ccc7c(c5)C(=O)N(C5CCC(=O)NC5=O)C7=O)C6)CC4)c(OC)c3)cn(CF)c(=O)c2C1 (centres unmarked) [Compound D347]
Result: < 10 nM

----------
- experimental.target: Nanoluciferase-BRD9 fusion protein (3×FLAG-NLuc-BRD9) in SYO-1 cells (Homo sapiens (Human))
- assay.comment: SYO1 BRD9 NanoLuc degradation assay
- Assay type: cell-based
- conditions.used: SYO-1 cells, 6 hours, Table 6C
pIC50: −log10 of the molar value.
Here the recorded pIC50 is given for each entry.

Q: Provide only the value of recorded pIC50 for [2H]C([2H])([2H])NC(=O)N1CCc2c(-c3cc(OC)c(CN4[C@H](C)CN(CCC5CCN(c6ccc7c(c6)CN(C6CCC(=O)NC6=O)C7=O)CC5)C[C@H]4C)c(OC)c3)cn(C)c(=O)c2C1 (some centres unmarked)
Result: > 8.00

Q: Answer with reported pIC50 of CCc1cc(-c2cn(C)c(=O)c3c2CCN(C(=O)NC)C3)cc(OC)c1CN1CCN(CCC2CCN(c3ccc4c(c3)C(=O)N(C3CCC(=O)NC3=O)C4)CC2)CC1 (centres unmarked)
Result: > 8.00

Q: Query pIC50 for [2H]C([2H])([2H])n1cc(-c2cc(OC)c(CN3CCN(CCC4CCN(c5ccc6c(c5)C(=O)N(C5CCC(=O)NC5=O)C6=O)CC4)CC3)c(OC)c2)c2c(c1=O)CN(C(=O)NCC(F)F)CC2 (centres unmarked)
Result: ≤ 6.00

Q: Answer with reported pIC50 of COc1cc(-c2cn(C)c(=O)c3c2CCC3)cc(OC)c1CN1CCC2(CC1)CN(c1ccc3c(c1)C(=O)N(C1CCC(=O)NC1=O)C3)C2 (centres unmarked)
Result: > 8.00

Q: Tell us which pIC50 value is on record for COc1cc(-c2cn(C)c(=O)c3c2CCCN3)cc(OC)c1CN1CCC2(CC1)CN(c1ccc3c(c1)C(=O)N(C1CCC(=O)NC1=O)C3)C2 (centres unmarked)
Result: > 8.00
